Molecular target: T1, rhesus ERBB3 on transiently transfected HEK-293 cells (rhesus monkey (Macaca mulatta), UniProt P21860 20-1342 (human entry))
T1 construct: also called rhesus ERBB3+ HEK-293 cells
T1 chain: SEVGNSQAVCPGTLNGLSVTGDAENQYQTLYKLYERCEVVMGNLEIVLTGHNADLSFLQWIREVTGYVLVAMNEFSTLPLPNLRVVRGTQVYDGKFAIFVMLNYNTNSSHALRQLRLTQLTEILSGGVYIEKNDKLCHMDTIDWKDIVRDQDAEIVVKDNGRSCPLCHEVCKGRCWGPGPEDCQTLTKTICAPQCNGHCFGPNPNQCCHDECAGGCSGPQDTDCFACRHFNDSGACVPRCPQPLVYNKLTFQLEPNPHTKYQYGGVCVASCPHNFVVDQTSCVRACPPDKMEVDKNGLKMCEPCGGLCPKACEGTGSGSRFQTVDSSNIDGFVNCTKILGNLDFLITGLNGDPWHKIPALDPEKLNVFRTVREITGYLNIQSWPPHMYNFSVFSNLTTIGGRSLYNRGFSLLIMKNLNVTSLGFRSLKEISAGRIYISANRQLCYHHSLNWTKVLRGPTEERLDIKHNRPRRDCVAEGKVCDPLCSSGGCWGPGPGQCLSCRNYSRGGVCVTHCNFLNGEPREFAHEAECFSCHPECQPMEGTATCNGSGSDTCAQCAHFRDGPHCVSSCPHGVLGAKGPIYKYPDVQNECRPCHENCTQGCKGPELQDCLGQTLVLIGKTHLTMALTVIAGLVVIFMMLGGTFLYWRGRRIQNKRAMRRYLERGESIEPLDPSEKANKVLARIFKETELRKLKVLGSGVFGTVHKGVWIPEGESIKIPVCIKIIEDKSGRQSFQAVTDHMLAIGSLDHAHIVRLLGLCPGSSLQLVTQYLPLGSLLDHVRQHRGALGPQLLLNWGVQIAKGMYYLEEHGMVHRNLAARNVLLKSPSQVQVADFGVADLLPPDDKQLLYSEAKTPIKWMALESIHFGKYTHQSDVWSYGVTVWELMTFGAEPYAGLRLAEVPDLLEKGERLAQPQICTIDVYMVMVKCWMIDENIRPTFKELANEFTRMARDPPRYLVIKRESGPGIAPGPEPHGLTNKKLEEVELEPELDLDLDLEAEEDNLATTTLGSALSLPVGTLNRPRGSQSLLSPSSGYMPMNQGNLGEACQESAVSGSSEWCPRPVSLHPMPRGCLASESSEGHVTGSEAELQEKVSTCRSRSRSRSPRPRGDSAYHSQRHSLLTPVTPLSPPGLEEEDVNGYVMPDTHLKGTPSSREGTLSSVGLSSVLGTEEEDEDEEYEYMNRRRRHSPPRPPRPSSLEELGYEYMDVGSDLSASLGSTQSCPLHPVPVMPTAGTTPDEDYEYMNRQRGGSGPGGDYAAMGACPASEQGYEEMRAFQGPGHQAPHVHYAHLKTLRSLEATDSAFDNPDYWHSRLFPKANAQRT
Experiment: flow cytometry, rhesus ERBB3-transfected HEK-293
recorded endpoint: maximum MFI, fold over isotype control background

{"columns": ["binder", "value observed"],
 "data": [
  ["09H02 IgG1null (antibody, V domains shown, Human IgG1null and human Ckappa; also called 09HO2) VH: QVQLVESGGGLVKPGGSLRLSCAASGFTFSDYSMSWIRQAPGKGLEWVSTISDGGSYTYYPDSVKGRFTISRDNAKNSLYLQMNSLRAEDTAVYYCARELGDYDGFDYWGQGTLVTVSS VL: DIQMTQSPSSLSASVGDRVTITCRASQSISSYLSWYQQKPGKAPKLLIYAASSLQSGVPSRFSGSGSGTDFTLTISSLQPEDFATYYCLQYDSTPLTFGGGTKVEIK", "> 20 fold"],
  ["MH2 IgG1null (antibody, V domains shown, Designer (Maximally Humanized) clone; Human IgG1null and human Ckappa) VH: QVQLVESGGGLVKPGGSLRLSCAASGFTFSDYGMSWIRQAPGKGLEWVSTISDSGSYIYYADSVKGRFTISRDNAKNSLYLQMNSLRAEDTAVYYCAREWGDYDGFDFWGQGTLVTVSS VL: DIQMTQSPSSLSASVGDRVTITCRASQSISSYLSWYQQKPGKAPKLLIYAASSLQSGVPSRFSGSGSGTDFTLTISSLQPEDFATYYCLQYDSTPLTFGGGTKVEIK", "> 20 fold"],
  ["MH3 IgG1null (antibody, V domains shown, Designer (Maximally Humanized) clone; Human IgG1null and human Ckappa) VH: QVQLVESGGGLVKPGGSLRLSCAASGFTFSDYSMSWIRQAPGKGLEWVSTISDSGSTIYYADSVKGRFTISRDNAKNSLYLQMNSLRAEDTAVYYCAREWGDYDGFDFWGQGTLVTVSS VL: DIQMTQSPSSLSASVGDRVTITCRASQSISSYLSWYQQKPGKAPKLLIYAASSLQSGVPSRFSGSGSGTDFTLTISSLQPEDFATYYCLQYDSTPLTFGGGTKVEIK", "> 20 fold"]
]}
